FYI, the data here is from the Human Domainome abundance scans (Beltran et al. 2025).

B1: POU domain, class 3, transcription factor 2, residues 356 to 411; numbered along this chain, P20265 (parent)
chain: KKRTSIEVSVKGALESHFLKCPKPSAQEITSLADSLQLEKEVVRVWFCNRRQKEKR

Variants of: B1
test-details: abundance fitness (aPCA) (normalised: wild type 0, dead -1); higher = more abundant; growth selection in yeast, the domain comes from the species named
condition-summary: Homo sapiens
Please mark fulfilled if the recorded abundance fitness is equal to or greater than -0.3, and not fulfilled if it falls below.

Observe how each entry below is paired with its result.
Data request: Could you verify whether the entry V42P shows abundance fitness of no less than -0.3?
Data returned: not fulfilled

Data request: Could you verify whether the entry R56I shows abundance fitness of no less than -0.3?
Data returned: not fulfilled

Data request: Could you verify whether the entry K40N shows abundance fitness of no less than -0.3?
Data returned: fulfilled

Further cases:
Data request: Could you verify whether the entry K2Q shows abundance fitness of no less than -0.3?
Data returned: fulfilled
